Assignment: determine reported Kd for the given binders.
EXPERIMENTAL_SYSTEM: T1, PUF4 RNA-binding domain (Saccharomyces cerevisiae, UniProt P25339 537-888)
T1 sequence: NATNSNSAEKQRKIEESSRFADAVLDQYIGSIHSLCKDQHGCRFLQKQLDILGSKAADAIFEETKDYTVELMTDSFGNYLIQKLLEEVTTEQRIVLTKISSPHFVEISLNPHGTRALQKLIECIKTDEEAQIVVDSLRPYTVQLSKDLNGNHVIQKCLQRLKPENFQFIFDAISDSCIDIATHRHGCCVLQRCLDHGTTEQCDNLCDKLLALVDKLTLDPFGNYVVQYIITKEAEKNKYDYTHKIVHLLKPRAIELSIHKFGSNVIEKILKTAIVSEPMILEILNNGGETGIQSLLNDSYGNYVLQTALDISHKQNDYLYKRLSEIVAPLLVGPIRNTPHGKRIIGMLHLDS
METHOD: Mg; RNA-MaP; 20 mM Na-HEPES pH 7.4, 30 mM KOAc, 0.75 mM MgCl2, 0.1% Tween-20, 5% glycerol, 0.1 mg/mL BSA, 2 mM DTT; 25 C; 0.0125-409.6 nM protein
PROTOCOL_CONDITIONS: tags: N-His6-TEV cleaved; C-SNAP kept, Cy3B-labelled; label: tethered on chip by stalled RNA polymerase
Write the answer as a number in nM, unit excluded.

Requested read-out: Kd. Entry: Ic_S4_P4E.1_K4.1_C4.1_H4.1_A4.1_[T5C]_[A6T]_[T7G]_F4.1_[T8C]_[A9G]_T4.1 (ssRNA) RNA: UUUGACAACUGAUCGUUCUUUCUUGUACUGCGUUCUUUCUCGAUCAGUUGUCUUU
916

For UCUCUUCAUAUAUAUAAUUCUCUU (ssRNA) [Id_ii_S1_P3E.3_K3.2_C3.2_[T-1A]_H3.2_A3.1_F3.1_T3.2_[T9A]_[A10T]] then?
669

Request: UCUCUUUGUAUCAGCCUCUCUU (ssRNA) [Ic_S1_P5E.1_K5.1_C5.1_H5.1_A5.1_[T6C]_F5.1_[T8G]_[T9C]_[A10C]_T5.1]
918

Similarly, Id_ii_S2_P5E.4_K5.3_C5.2_[T-1A]_H5.3_A5.1_F5.1_T5.2 (ssRNA) RNA: UUUGAUUAAUAUGAUAUCGUUCUUUCUCAACACUUAUUAUAUUCUUUCUCGAUAUCAUAUUAAUCUUU ?
591

Param item: Id_i_S2_P3E.2_K3.1_C3.2_[C-2T]_[T-1A]_H3.1_A3.1_F3.1_T3.2 (ssRNA) RNA: UUUGAUUAAUAUGAUAUCGUUCUUUCUUAUGUAUAUAUAUUCUUUCUCGAUAUCAUAUUAAUCUUU
4.51
